For each entry below, report its melting point value.

I am curious: what melting point value has been reported for O=S(c1ccccc1)C1COc2ccc(OCc3ccc4ccccc4n3)cc2C1O (centres undefined) ?
174 to 176 °C

Now the same for CCCc1c2c(c([N+](=O)[O-])c3c(=O)cc(C(=O)OCC)oc13)CCCC2
140 to 142 °C

Next entry: O=C(c1ccccc1)c1cccnc1-c1nc(Nc2ccc(Cl)cc2)c2ccccc2n1
190 to 192 °C

Now this one: CCOC(=O)COc1cc(-n2ncc(=O)n(C)c2=O)c(Cl)cc1Cl
115 to 117 °C

Also need CC(C)n1cc(-c2nc(C(N)=O)c(N)nc2-c2cc(F)cc(F)c2)ccc1=O , thanks.
249 °C

Please give the result for COc1ccc(C(=O)CBr)c(F)c1 too.
67 to 69 °C

Proceed to CCCCCCOc1ccc2c(CC#N)c(OCCCCCC)ccc2c1CC#N
135 to 136 °C

Do the same for CCOC(=O)c1ccc(CC(C)NCC(O)c2ccc(O)c(CO)c2)cc1 (centres undefined) please
92 to 96 °C

Item: O=C(O)CN(C(=O)CCCOc1ccc2c(c1)CN1CC(=O)NC1=N2)C1CCCCC1
194 to 195 °C

====

Exercise: state measured melting point for each of the compounds provided.

Quick one: melting point of COc1ccc(Br)cc1C1C2CC3CC(C2)CC1C3 (stereo not given) ?
140 to 141 °C

Same for O=C(Nc1ccc(Oc2ccc(Cl)cc2Cl)nc1)N1CCc2ccccc2CC1
154 to 155 °C

Another compound to check: Clc1cccc(Nc2ncnc3[nH]nc(N4CCOCC4)c23)c1
275 to 276 °C

How about this compound: O=C(NC(Cc1ccc(OCc2ccoc2)cc1)C(=O)O)c1cn2cc(-c3ccc(Cl)cc3)ccc2n1 (stereo not given)
262 °C

Follow-up entry: O=C1CCCCN1CCC(=O)N1CCC(C2c3ncc(Br)cc3CCc3cc(Cl)cc(Br)c32)CC1 (single isomer, unassigned; (+))
138 to 139 °C

Likewise for Cc1nnc(-c2ccc3ncn(C4CCN(Cc5ccccc5)CC4)c3c2)o1 ?
173 to 174 °C

// repeat for COc1cc(NC(C)=O)c(Cl)cc1C(=O)NN1CCN(C)CC1 and report
198 to 200 °C

What about O=C(Cn1c(-c2ccc(Cl)cc2)nc2cccnc21)N1CCSC1 ?
215 to 218 °C

Same again, this time with CNc1c(C#N)c(C(F)(F)F)nn1-c1c(Cl)cc(C(F)(F)F)cc1Cl
200 to 202 °C

Query CC(C)(C)OC(=O)NCCNS(=O)(=O)c1ccc(Br)s1 next
106 °C

====

Measured Parameter: melting point

Tell me the measured melting point of O=C(OCc1ccccc1)c1ccc(OC(=O)c2ccc(O)c(C34CC5CC(CC(C5)C3)C4)c2)cc1 , please.
164 to 165 °C

Ok, now CCC1=C(C(=O)OC)C(c2ccc(F)cc2Cl)N=C(c2cscn2)N1 (centres undefined)
144 to 147 °C

Again, but for Cc1oc(-c2ccccc2)nc1COc1ccc(COc2nn(-c3ccccc3)cc2CO)cc1
118 to 119 °C

Again, but for O=C(O)C1CCC(=O)N1Cc1cccc(F)c1 (centres undefined)
114 to 116 °C

Param item: CCOC(=O)C(C)(C)n1c(=O)[nH]c2cc(Cl)ccc2c1=O
201 to 202 °C

Please give the result for CCCCCCCCCCC(C)(C)NC(=O)Nc1cc(OC)cc(C(C)(C)C)c1OCOC too.
83 to 85 °C

What do we get for O=C(OCc1ccc(CO)cc1COC(=O)c1ccccc1)c1ccccc1 ?
91 to 93 °C

Now this one: CCC(CC)Nc1c([N+](=O)[O-])cc(C)c(CO)c1[N+](=O)[O-]
51 to 54 °C

Next entry: O=C(NCC(F)(F)F)c1cccc(-c2nc(=O)c3ccccc3s2)n1
243 to 244 °C

====

Kindly state melting point for each of the entries shown.

Given the entry CCc1nc2ccc(F)cc2c(OC(=O)C2CC2)c1C , report its measured melting point.
86 to 87 °C

Queued: CCOC(=O)c1cn2c3c(ccc(C)c3c1=O)CCC2C (centres undefined)
106 to 108 °C

And the next one, CC1(C)Cc2sccc2C=[N+]1[O-] ?
130 to 131 °C

And the next one, Cc1oc(-c2ccco2)nc1COc1cc(CCl)ccn1 ?
107 to 108 °C

Same question for CC(=O)Nc1ccc(C(=O)c2cc(-c3ccc(S(C)(=O)=O)cc3)c(N3CCOCC3)s2)cc1 please.
129 °C

How about CCCCCCCCCCCCCCCCCCn1c(C)c(CC(=O)NN)c2cc(OC)ccc21 ?
121 to 123 °C

Ok, now CC(C)c1nn(-c2ccc(C(F)(F)F)cn2)cc1CCCOc1c(CC(=O)O)cnn1C
146 to 148 °C

# repeat for Cn1c(COc2ccc(CC3SC(=O)NC3=O)cc2)nc2ccc(Oc3cccc(NC(=O)Nc4ccc5c(c4)OCO5)c3)cc21 (centres undefined)
179 to 182 °C

Same again, this time with Nc1ccc(-c2ncc(NC(=O)OCc3ccccc3)c(=O)n2CC(=O)NC(Cc2ccccc2)C(=O)C(F)(F)F)cc1 (centres undefined)
98 to 101 °C

====

I'd appreciate it if you could supply melting point values for the items below.

Suppose we examine the molecule N#Cc1ccc([C@@H]2CN(Cc3ccccc3)C[C@@]23NC(=O)N(c2cc(Cl)cc(Cl)c2)C3=O)cc1 (relative stereo) ; what melting point value has been reported?
200 °C

Request: COc1cc(OC)nc(-c2c(N)n(S(=O)(=O)C(F)F)c3ccccc23)n1
156 to 158 °C

How about COc1c(O)ccc2cc(-c3ccc(O)cc3)ccc12 ?
204 to 206 °C

Same question, O=C(O)c1cc(-c2ccccc2Cl)c[nH]c1=O this time
299 to 303 °C

Request: Clc1nc(Cl)c(-c2ccccc2)c(-c2ccccc2)n1
144 to 146 °C

Now give it for N#CC=C1CCc2ccc3ncoc3c21 too.
166 to 168 °C

Moving on to NC(=O)c1cncc(OCC(O)CO)c1 (stereo not given)
197 to 199 °C

Entry COc1ccc(Nc2ncnc(NCCO)n2)cc1 please
160 to 164 °C

Now consider O=[N+]([O-])c1ccc(-n2cncn2)cc1 and answer again.
198 °C

Item: C=CCN(C1CCN(C)CC1)S(=O)(=O)c1ccc(Nc2nccc(Nc3ccc(F)cc3)n2)cc1
167 °C

====

Measured Parameter: melting point

Bench note: what melting point did CCC#COc1ccc(S(=O)(=O)NC(CSc2ccccn2)C(=O)NO)cc1 (stereo not given) show?
115 to 120 °C

Item: CCCCCCCCCCCCCCCCCC[N+](=O)[O-]
47 to 50 °C

// next record Cc1nc(N2CCN(Cc3ncoc3-c3ccccc3)C2=O)sc1C(=O)NCc1cccnc1
78 to 81 °C

Field entry: COc1c(C(=O)O)ccc(Cl)c1SC
121 to 123 °C

For O=C(Nc1cccc2cc(CO)cnc12)c1c(Cl)cccc1Cl then?
224 to 226 °C

Next: C=Cc1c(C(=O)OC)cccc1[N+](=O)[O-]
44 to 45 °C

And the next one, COC(=O)c1cc(NC(=O)OC(C)(C)C)c(N)cc1I ?
60 to 78 °C

Then CCCCC1(CCCC)CCc2c(OCc3ccc4ccccc4n3)cccc2C1O (stereo not given) ?
62 to 65 °C

Can you handle O=C(CSCc1c[nH]c2ccccc12)N1CC=C(c2cccc(F)c2)CC1 next?
130 to 131 °C

Let us now turn to Cn1c(C(F)(F)F)cc(=O)n(-c2ccc3snc(C(Cl)Cl)c3c2)c1=O
148 to 149 °C

And the next one, O=C1c2ccccc2C(=O)N1CCc1c[nH]c2ccc(CNS(=O)(=O)c3ccccc3)cc12 ?
225 to 226 °C

Similarly, O=C(NC(Cc1ccc(OCc2ccccc2)cc1)C(=O)O)c1cc2ccc(-c3ccc(Cl)cc3)cc2s1 (stereo not given) ?
237 to 239 °C

Also check O=C(O)C=Cc1cc(Oc2c(Cl)cc(C(F)(F)F)cc2Cl)ccc1[N+](=O)[O-]
192 °C

What do you get for COc1ccc2[nH]cc(CC3=CCCN(CCCC(=NO)c4ccc(F)cc4)C3)c2c1 ?
129 to 130 °C

Moving on to the next compound: COc1cccc(OC)c1-c1nc2nccnc2[nH]1
248 to 249 °C

Would you mind doing Cc1nc2[nH]c(=O)[nH]c2cc1-c1ccc([N+](=O)[O-])cc1 as well?
> 300 °C

For CSc1ccc([N+](=O)[O-])cc1C(F)(F)F then?
50 °C

Try this compound next: O=C1CCCNc2ccc(Cl)cc21
103 to 104 °C

Follow-up item: COc1cccc(P2(=O)c3ccccc3CN2c2ccccc2)c1 (stereo not given)
170 to 172 °C

Another: CC(C)(C)OC(=O)Nc1cc(OCC2COC(C)(C)O2)c(C#Cc2ccccc2)cc1[N+](=O)[O-] (racemic)
32 °C
